Would you kindly list CC50 at 5 days for each of these compounds?
experiment_notes: Test B: Cytotoxicity Assay (same protocol as Test A, uninfected cells)
Format: cell-based
condition_parameters: human, uninfected MT-4 cells, CellTiter-Glo

I have this compound here, CC(C)(C#Cc1ccc(-c2ccc(Cl)c3c(NS(=O)(=O)CC4CC4)nn(CC(F)F)c23)c([C@H](Cc2cc(F)cc(F)c2)NC(=O)Cn2nc(C(F)F)c3c2C(F)(F)[C@@H]2C[C@H]32)n1)S(=O)(=O)C1CC1 , and I need its recorded CC50 at 5 days.
> 57.1 µM

Do the same for Cn1nc(Nc2nnc(C(F)F)o2)c2c(Cl)ccc(-c3ccc(C#CC(C)(C)S(=O)(=O)C4CC4)nc3[C@H](Cc3cc(F)cc(F)c3)NC(=O)Cn3nc(C(F)F)c4c3C(F)(F)[C@@H]3C[C@H]43)c21 please
> 57.1 µM

----------
Tested on: HIV-IIIb
experiment_notes: Test A: Antiviral Assay in MT4 Cells
Format: cell-based, HIV-1
condition_parameters: Human immunodeficiency virus 1, MT4, 120 h; inhibition of virus-induced cell killing, from dose response curve at 0.01 μM (10 nM); MT-4 cells, HIV-IIIb, 5 days; values normalized to 100%; read-out: % inhibition at 0.01 μM
measured_metric: inhibition at 0.01 µM (%)
Give the number; % is assumed, so skip it.

// fetch HIV-IIIb inhibition at 0.01 µM for CCS(=O)(=O)Nc1nn(CC(F)F)c2c(-c3ccc(C#CC(C)(C)S(=O)(=O)C4CC4)nc3[C@H](Cc3cc(F)cc(F)c3)NC(=O)Cn3nc(C(F)F)c4c3C(F)(F)[C@@H]3C[C@H]43)ccc(Cl)c12
96

Do the same for Cn1nc(NS(=O)(=O)C2CC2)c2c(Cl)ccc(-c3ccc(C#CC(C)(C)S(=O)(=O)C4CC4)nc3[C@H](Cc3cc(F)cc(F)c3)NC(=O)Cn3nc(C(F)F)c4c3C(F)(F)CCC4(F)F)c21 please
99

Do the same for Cn1nc(NS(C)(=O)=O)c2c(Cl)ccc(-c3ccc(C#CC(C)(C)S(=O)(=O)C4CC4)nc3[C@H](Cc3cc(F)cc(F)c3)NC(=O)Cn3nc(C(F)F)c4c3C(F)(F)CCC4(F)F)c21 please
93

Do the same for CC(C)(C#Cc1ccc(-c2ccc(Cl)c3c(NS(=O)(=O)CC4CC4)nn(CC(F)F)c23)c([C@H](Cc2cc(F)cc(F)c2)NC(=O)Cn2nc(C(F)F)c3c2C(F)(F)[C@@H]2C[C@H]32)n1)S(=O)(=O)C1CC1 please
100

Do the same for CC1(S(=O)(=O)Nc2nn(CC(F)(F)F)c3c(-c4ccc(C#CC(C)(C)S(=O)(=O)C5(C)CC5)nc4[C@H](Cc4cc(F)cc(F)c4)NC(=O)Cn4nc(C(F)(F)F)c5c4C(F)(F)[C@@H]4C[C@H]54)ccc(Cl)c23)CC1 please
100

Do the same for CC(C)(O)c1nnc(Nc2nn(CC(F)F)c3c(-c4ccc(C#CC(C)(C)S(=O)(=O)C5CC5)nc4[C@H](Cc4cc(F)cc(F)c4)NC(=O)Cn4nc(C(F)F)c5c4C(F)(F)[C@@H]4C[C@H]54)ccc(Cl)c23)o1 please
100

Do the same for Cn1nc(Nc2nnc(C3(O)CC3)o2)c2c(Cl)ccc(-c3ccc(C#CC(C)(C)S(=O)(=O)C4CC4)nc3[C@H](Cc3cc(F)cc(F)c3)NC(=O)Cn3nc(C(F)F)c4c3C(F)(F)[C@@H]3C[C@H]43)c21 please
99

Do the same for Cn1nc(NS(=O)(=O)C2(C)CC2)c2c(Cl)ccc(-c3ccc(C#CC(C)(C)S(=O)(=O)C4CC4)nc3[C@H](Cc3cc(F)cc(F)c3)NC(=O)Cn3nc(C(F)F)c4c3C(F)(F)CCC4(F)F)c21 please
89

Do the same for CC1(S(=O)(=O)Nc2nn(CC(F)F)c3c(-c4ccc(C#CC(C)(C)S(=O)(=O)C5CC5)nc4[C@H](Cc4cc(F)cc(F)c4)NC(=O)Cn4nc(C(F)F)c5c4C(F)(F)[C@@H]4C[C@H]54)ccc(Cl)c23)CC1 please
100

----------
Would you kindly list CC50 at 5 days for each of these compounds?
experiment_notes: Test B: Cytotoxicity Assay (same protocol as Test A, uninfected cells)
Assay type: cell-based
condition_parameters: human, uninfected MT-4 cells, CellTiter-Glo

I have this compound here, Cn1nc(NS(=O)(=O)CC2CC2)c2c(Cl)ccc(-c3ccc(C#CC(C)(C)S(=O)(=O)C4CC4)nc3[C@H](Cc3cc(F)cc(F)c3)NC(=O)Cn3nc(C(F)F)c4c3C(F)(F)[C@@H]3C[C@H]43)c21 , and I need its recorded CC50 at 5 days.
> 57.1 µM

Do the same for CC1(S(=O)(=O)Nc2nn(CC(F)(F)F)c3c(-c4ccc(C#CC(C)(C)S(=O)(=O)C5(C)CC5)nc4[C@H](Cc4cc(F)cc(F)c4)NC(=O)Cn4nc(C(F)(F)F)c5c4C(F)(F)[C@@H]4C[C@H]54)ccc(Cl)c23)CC1 please
> 57.1 µM

Do the same for Cn1nc(Nc2nnc(C(C)(C)O)o2)c2c(Cl)ccc(-c3ccc(C#CC(C)(C)S(=O)(=O)C4CC4)nc3[C@H](Cc3cc(F)cc(F)c3)NC(=O)Cn3nc(C(F)F)c4c3C(F)(F)[C@@H]3C[C@H]43)c21 please
18.5 µM

Do the same for Cn1nc(NS(C)(=O)=O)c2c(Cl)ccc(-c3ccc(C#CC(C)(C)S(=O)(=O)C4CC4)nc3[C@H](Cc3cc(F)cc(F)c3)NC(=O)Cn3cc(C(F)(F)F)cn3)c21 please
> 50 µM

Do the same for Cn1nc(NS(C)(=O)=O)c2c(Cl)ccc(-c3ccc(C#CC(C)(C)S(=O)(=O)C4CC4)nc3[C@H](Cc3cc(F)cc(F)c3)NC(=O)Cn3ncc4ccccc43)c21 please
28.4 µM

Do the same for CC(C)(C#Cc1ccc(-c2ccc(Cl)c3c(NS(=O)(=O)C4CC4)nn(CC(F)F)c23)c([C@H](Cc2cc(F)cc(F)c2)NC(=O)Cn2nc(C(F)F)c3c2C(F)(F)CCC3(F)F)n1)S(=O)(=O)C1CC1 please
> 57.1 µM

Do the same for Cn1nc(NS(C)(=O)=O)c2c(Cl)ccc(-c3ccc(C#CC(C)(C)S(=O)(=O)C4CC4)nc3[C@H](Cc3cc(F)cc(F)c3)NC(=O)Cn3nc(C(F)F)c(C4CC4)c3C(F)F)c21 please
> 57.1 µM

Do the same for Cn1nc(Nc2nnc(C3(O)CC3)o2)c2c(Cl)ccc(-c3ccc(C#CC(C)(C)S(=O)(=O)C4CC4)nc3[C@H](Cc3cc(F)cc(F)c3)NC(=O)Cn3nc(C(F)F)c4c3C(F)(F)[C@@H]3C[C@H]43)c21 please
16.5 µM

Do the same for Cn1nc(NS(=O)(=O)C2CC2)c2c(Cl)ccc(-c3ccc(C#CC(C)(C)S(=O)(=O)C4CC4)nc3[C@H](Cc3cc(F)cc(F)c3)NC(=O)Cn3nc(C(F)F)c4c3C(F)(F)CCC4(F)F)c21 please
> 57.1 µM

----------
Would you kindly list inhibition at 0.01 µM for each of these compounds?
Tested on: HIV-IIIb
experiment_notes: Test A: Antiviral Assay in MT4 Cells
Type: cell-based, HIV-1
condition_parameters: Human immunodeficiency virus 1, MT4, 120 h; inhibition of virus-induced cell killing, from dose response curve at 0.01 μM (10 nM); MT-4 cells, HIV-IIIb, 5 days; values normalized to 100%; read-out: % inhibition at 0.01 μM

I have this compound here, CC(C)(C#Cc1ccc(-c2cccc3c(NS(=O)(=O)C4CC4)nn(CC(F)F)c23)c([C@H](Cc2cc(F)cc(F)c2)NC(=O)Cn2nc(C(F)F)c3c2C(F)(F)[C@@H]2C[C@H]32)n1)S(=O)(=O)C1CC1 , and I need its recorded inhibition at 0.01 µM.
93%

Do the same for Cn1nc(NS(=O)(=O)C2(C)CC2)c2c(Cl)ccc(-c3ccc(C#CC(C)(C)S(=O)(=O)C4CC4)nc3[C@H](Cc3cc(F)cc(F)c3)NC(=O)Cn3nc(C(F)(F)F)c4c3C(F)(F)[C@@H]3C[C@H]43)c21 please
100%

Do the same for Cn1nc(NS(C)(=O)=O)c2c(Cl)ccc(-c3ccc(C#CC(C)(C)S(=O)(=O)C4CC4)nc3[C@H](Cc3cc(F)cc(F)c3)NC(=O)c3ccn[nH]3)c21 please
86%

Do the same for Cn1nc(NS(C)(=O)=O)c2c(Cl)ccc(-c3ccc(C#CC(C)(C)S(=O)(=O)C4CC4)nc3[C@H](Cc3cc(F)cc(F)c3)NC(=O)Cn3cc(C(F)(F)F)nc3C3CC3)c21 please
45%

Do the same for CC1(S(=O)(=O)Nc2nn(CC(F)(F)F)c3c(-c4ccc(C#CC(C)(C)S(=O)(=O)C5CC5)nc4[C@H](Cc4cc(F)cc(F)c4)NC(=O)Cn4nc(C(F)(F)F)c5c4C(F)(F)[C@@H]4C[C@H]54)ccc(Cl)c23)CC1 please
100%

Do the same for CC(C)(C#Cc1ccc(-c2ccc(Cl)c3c(NS(C)(=O)=O)nn(C4COC4)c23)c([C@H](Cc2cc(F)cc(F)c2)NC(=O)Cn2nc(C(F)(F)F)c3c2C(F)(F)[C@@H]2C[C@H]32)n1)S(=O)(=O)C1CC1 please
97%

Do the same for CC(C)(C#Cc1ccc(-c2ccc(Cl)c3c(NS(C)(=O)=O)nn(CC(F)F)c23)c([C@H](Cc2cc(F)cc(F)c2)NC(=O)Cn2nc(C(F)F)c3c2C(F)(F)CCC3(F)F)n1)S(=O)(=O)C1CC1 please
89%

Do the same for CC(C)(C#Cc1ccc(-c2ccc(Cl)c3c(NS(=O)(=O)C4CC4)nn(CC(F)F)c23)c([C@H](Cc2cc(F)cc(F)c2)NC(=O)Cn2nc(C(F)F)c3c2C(F)(F)CCC3(F)F)n1)S(=O)(=O)C1CC1 please
97%

Do the same for Cn1nc(NS(C)(=O)=O)c2c(Cl)ccc(-c3ccc(C#CC(C)(C)S(=O)(=O)C4CC4)nc3[C@H](Cc3cc(F)cc(F)c3)NC(=O)Cc3ncc[nH]3)c21 please
61%
